# Experimental target: human CAR ligand-binding domain (LBD) (Homo sapiens)
# Sequence (Q14994 109-352 limits assumed): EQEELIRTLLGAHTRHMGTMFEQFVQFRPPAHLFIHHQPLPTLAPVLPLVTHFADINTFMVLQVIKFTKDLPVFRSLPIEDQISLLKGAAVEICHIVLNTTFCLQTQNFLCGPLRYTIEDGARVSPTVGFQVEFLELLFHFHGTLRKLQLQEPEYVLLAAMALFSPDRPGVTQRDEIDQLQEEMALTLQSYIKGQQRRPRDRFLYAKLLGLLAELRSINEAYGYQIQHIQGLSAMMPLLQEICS
# Experiment description: LanthaScreen TR-FRET CAR Coactivator Assay
# Assay type: biochemical
# Condition set: IC50 (95% Conf. Interv.), TR-FRET CAR Assay, CITCO 1 μM, antagonist mode, with agonist CITCO 1 μM
Measurement type: IC50 (µM)
One number for each entry, in µM.

Enquiry: IC50 for `C[C@]12CC[C@@H](O)C[C@@H]1CC[C@@H]1[C@@H]2CC[C@]2(C)C=CC[C@@H]12` ?
Return: 313
